methodSummary: self-splicing fitness, log relative to wild type (ln ratio); higher = more splicing; Tetrahymena group I intron in knt gene, E. coli kanamycin selection, DiMSum; sequences stand for … in CUCUCU…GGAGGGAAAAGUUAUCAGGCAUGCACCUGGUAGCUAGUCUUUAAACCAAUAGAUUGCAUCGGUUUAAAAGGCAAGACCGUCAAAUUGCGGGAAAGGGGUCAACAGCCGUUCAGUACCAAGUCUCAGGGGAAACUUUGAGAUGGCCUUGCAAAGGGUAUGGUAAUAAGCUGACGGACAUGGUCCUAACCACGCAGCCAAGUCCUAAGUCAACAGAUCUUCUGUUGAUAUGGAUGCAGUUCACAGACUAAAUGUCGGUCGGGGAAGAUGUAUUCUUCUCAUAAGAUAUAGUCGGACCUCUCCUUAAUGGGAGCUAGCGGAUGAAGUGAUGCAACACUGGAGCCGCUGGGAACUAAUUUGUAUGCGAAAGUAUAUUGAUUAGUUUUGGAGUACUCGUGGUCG;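 further: selection with 25 µg/mL kanamycin versus none on LB agar overnight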
runConditions: 37 °C
endpoint: self-splicing fitness (ln)
Answer with a number only.

# lookup: self-splicing fitness (ln) of GGGAAGCAAUAUUACGCGUU
-1.49

# lookup: self-splicing fitness (ln) of UAAUAGCAAUAUUACGUUAC
-2.2

# lookup: self-splicing fitness (ln) of GGCCAGCAAUAUUACGGUCG
0.113

# lookup: self-splicing fitness (ln) of UCCGAGCAAUAUUACGCCCA
-2.83

# lookup: self-splicing fitness (ln) of GAUUAGCAAUAUUACGAUCG
-0.387

# lookup: self-splicing fitness (ln) of UCAGAGCAAUAUUACGGAAC
-2.49

# lookup: self-splicing fitness (ln) of GAUGAGCAAUAUUACGAGGU
-1.99

# lookup: self-splicing fitness (ln) of GGGCAGCAAUAUUACGCCUA
0.428

---

Some sequences, each annotated with its measured self-splicing fitness (ln).
methodSummary: self-splicing fitness, log relative to wild type (ln ratio); higher = more splicing; Tetrahymena group I intron in knt gene, E. coli kanamycin selection, DiMSum; sequences stand for … in CUCUCU…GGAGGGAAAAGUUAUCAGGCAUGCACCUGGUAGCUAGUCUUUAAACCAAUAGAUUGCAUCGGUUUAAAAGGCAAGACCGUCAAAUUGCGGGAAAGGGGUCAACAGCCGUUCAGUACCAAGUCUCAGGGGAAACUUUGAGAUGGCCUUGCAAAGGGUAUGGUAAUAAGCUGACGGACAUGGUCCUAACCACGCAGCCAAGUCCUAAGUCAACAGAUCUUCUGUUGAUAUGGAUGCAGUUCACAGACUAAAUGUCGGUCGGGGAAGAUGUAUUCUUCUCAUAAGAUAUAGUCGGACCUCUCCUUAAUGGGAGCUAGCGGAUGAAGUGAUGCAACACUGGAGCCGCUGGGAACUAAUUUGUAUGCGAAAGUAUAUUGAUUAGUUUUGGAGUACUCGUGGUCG
runConditions: 37 °C
Answer with a number only.

Before answering, review these 5 worked examples.
[
  {
    "sequenceContent": "GGCAAGCAAUAUUACGCCCU",
    "endpoint": "self-splicing fitness (ln)",
    "resultValue": -0.495
  },
  {
    "sequenceContent": "UGAAAGCAAUAUUACGUAAC",
    "endpoint": "self-splicing fitness (ln)",
    "resultValue": -1.29
  },
  {
    "sequenceContent": "CAAUAGCAAUAUUACGUUUA",
    "endpoint": "self-splicing fitness (ln)",
    "resultValue": -2.13
  },
  {
    "sequenceContent": "GACCAGCAAUAUUACGGACG",
    "endpoint": "self-splicing fitness (ln)",
    "resultValue": 0.272
  },
  {
    "sequenceContent": "CCUGAGCAAUAUUACGGGAU",
    "endpoint": "self-splicing fitness (ln)",
    "resultValue": -1.63
  }
]

// moving on: another record for self-splicing fitness (ln)
# lookup: self-splicing fitness (ln) of ACAGAGCAAUAUUACGCGUG
-1.87

Origin of the recorded values: the supplement of paper PMC7877785
